Here the recorded viability, T/C is given for each entry.
# Test system: 282377-053-R-J1-PDC complex spheroids, viability
# RUN_DESCRIPTION: Anticancer human tumor 282377-053-R-J1-PDC patient-derived colon adenocarcinoma cell line growth inhibition [GQUAD]
# CONDITION_SUMMARY: second compound 0.0316 µM; first compound 0.0316 µM; hits give low values
Just the number please, in %, no unit attached.

Exercise: Provide measured viability, T/C value, entry: Nc1ccn(C2OC(CO)C(O)C2(F)F)c(=O)n1 (stereo not given) + Cc1[nH]c2ccc(F)cc2c1-c1nc2c3cccnc3c3ncccc3c2[nH]1
Key: 119

Exercise: Provide measured viability, T/C value, entry: COc1cc(C2c3cc4c(cc3C(OC3OC5COC(C)OC5C(O)C3O)C3COC(=O)C23)OCO4)cc(OC)c1O (stereo not given) + CN(C)c1ccc(Nc2c3ccc(NC(=O)CCN4CCCC4)cc3nc3cc(NC(=O)CCN4CCCC4)ccc23)cc1
Key: 94.2

Exercise: Provide measured viability, T/C value, entry: O=C(c1cc(Cc2n[nH]c(=O)c3ccccc23)ccc1F)N1CCN(C(=O)C2CC2)CC1 + Cc1[nH]c2ccc(F)cc2c1-c1nc2c3cccnc3c3ncccc3c2[nH]1
Key: 134

Exercise: Provide measured viability, T/C value, entry: CCc1c2c(nc3ccc(O)cc13)-c1cc3c(c(=O)n1C2)COC(=O)[C@]3(O)CC + CN(C)c1ccc(Nc2c3ccc(NC(=O)CCN4CCCC4)cc3nc3cc(NC(=O)CCN4CCCC4)ccc23)cc1
Key: 69.5

Consider the additional molecule presented here.
Exercise: Provide measured viability, T/C value, entry: CCc1c2c(nc3ccc(O)cc13)-c1cc3c(c(=O)n1C2)COC(=O)[C@]3(O)CC + Cc1cnc(CNC(=O)c2c(=O)c3ccc(N4CCCN(C)CC4)nc3n3c2sc2ccccc23)cn1
Key: 56.4

----------
# Tested on: 282377-053-R-J1-PDC complex spheroids, viability
# RUN_DESCRIPTION: Anticancer human tumor 282377-053-R-J1-PDC cell line growth inhibition [GQUAD];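 further: spheroids exposed to compounds for 7 days before readout; percent of vehicle DMSO control viability with 100% = untreated-like growth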
# CONDITION_SUMMARY: second compound 3.16 µM; first compound 0.316 µM; hits give low values
Here the recorded viability, T/C is given for each entry.
Just the number please, in %, no unit attached.

The following compounds have reported results that may help.
Exercise: Give viability, T/C only, for C#Cc1c(F)ccc2cc(O)cc(-c3ncc4c(N5CC6CCC(C5)N6)nc(OCC56CCCN5CC(F)C6)nc4c3F)c12 (stereo not drawn) + Cc1cnc(CNC(=O)c2c(=O)c3ccc(N4CCCN(C)CC4)nc3n3c2sc2ccccc23)cn1 , using 282377-053-R-J1-PDC complex spheroids, viability data.
Key: 58.5

Exercise: Give viability, T/C only, for COc1ccc([C@@H](O)c2cc(-c3ncnc4cc(N5CCOCC5)ccc34)c(F)cc2Cl)nn1 + CN(C)c1ccc(Nc2c3ccc(NC(=O)CCN4CCCC4)cc3nc3cc(NC(=O)CCN4CCCC4)ccc23)cc1 , using 282377-053-R-J1-PDC complex spheroids, viability data.
Key: 81.2

Others:
Exercise: Give viability, T/C only, for CCc1c2c(nc3ccc(O)cc13)-c1cc3c(c(=O)n1C2)COC(=O)[C@]3(O)CC + Cc1cnc(CNC(=O)c2c(=O)c3ccc(N4CCCN(C)CC4)nc3n3c2sc2ccccc23)cn1 , using 282377-053-R-J1-PDC complex spheroids, viability data.
Key: 19.4

----------
# System: 282377-053-R-J1-PDC complex spheroids, viability
# RUN_DESCRIPTION: Anticancer human tumor 282377-053-R-J1-PDC cell line growth inhibition [GQUAD];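 further: spheroids exposed to compounds for 7 days before readout; percent of vehicle DMSO control viability with 100% = untreated-like growth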
# CONDITION_SUMMARY: second compound 10 µM; first compound 0.0316 µM; hits give low values
Here the recorded viability, T/C is given for each entry.
Just the number please, in %, no unit attached.

Exercise: Provide measured viability, T/C value, entry: Cn1ncnc1[C@H]1c2n[nH]c(=O)c3cc(F)cc(c23)N[C@@H]1c1ccc(F)cc1 + Cc1cnc(CNC(=O)c2c(=O)c3ccc(N4CCCN(C)CC4)nc3n3c2sc2ccccc23)cn1
Key: 45.1

Others:
Exercise: Provide measured viability, T/C value, entry: COc1ncnc(C2CC2)c1-c1ncc2cnn(Cc3ccc(-c4nc(C(F)(F)F)cn4C(C)C)cc3)c2n1 + Cc1[nH]c2ccc(F)cc2c1-c1nc2c3cccnc3c3ncccc3c2[nH]1
Key: 48.1

Exercise: Provide measured viability, T/C value, entry: CC(C)n1c(=O)n(C)c2cnc3cc(F)c(-c4ccc(OCCCN5CCCCC5)nc4)cc3c21 + Cc1cnc(CNC(=O)c2c(=O)c3ccc(N4CCCN(C)CC4)nc3n3c2sc2ccccc23)cn1
Key: 44.6

Exercise: Provide measured viability, T/C value, entry: COc1cccc2c1C(=O)c1c(O)c3c(c(O)c1C2=O)CC(O)(C(=O)CO)CC3OC1CC(N)C(O)C(C)O1 (stereo not given) + Cc1cnc(CNC(=O)c2c(=O)c3ccc(N4CCCN(C)CC4)nc3n3c2sc2ccccc23)cn1
Key: 54.4

----------
# System: 282377-053-R-J1-PDC complex spheroids, viability
# RUN_DESCRIPTION: Anticancer human tumor 282377-053-R-J1-PDC cell line growth inhibition [GQUAD];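 further: spheroids exposed to compounds for 7 days before readout; percent of vehicle DMSO control viability with 100% = untreated-like growth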
# CONDITION_SUMMARY: second compound 0.316 µM; first compound 0.0316 µM; hits give low values
Here the recorded viability, T/C is given for each entry.

The following molecules have reported results that may help.
Exercise: Provide measured viability, T/C value, entry: COc1ccc([C@@H](O)c2cc(-c3ncnc4cc(N5CCOCC5)ccc34)c(F)cc2Cl)nn1 + Cc1cnc(CNC(=O)c2c(=O)c3ccc(N4CCCN(C)CC4)nc3n3c2sc2ccccc23)cn1
Key: 79.2%

Exercise: Provide measured viability, T/C value, entry: CCc1c2c(nc3ccc(O)cc13)-c1cc3c(c(=O)n1C2)COC(=O)[C@]3(O)CC + CN(C)c1ccc(Nc2c3ccc(NC(=O)CCN4CCCC4)cc3nc3cc(NC(=O)CCN4CCCC4)ccc23)cc1
Key: 70.9%

Exercise: Provide measured viability, T/C value, entry: CC1COCCN1c1cc(C2(O)CC3CCC(C2)O3)c2cnn(-c3ccn[nH]3)c2n1 (stereo unspecified) + Cc1cnc(CNC(=O)c2c(=O)c3ccc(N4CCCN(C)CC4)nc3n3c2sc2ccccc23)cn1
Key: 50.1%

Exercise: Provide measured viability, T/C value, entry: C=CC(=O)N1CCN(c2nc(=O)n(-c3c(C)ccnc3C(C)C)c3nc(-c4c(O)cccc4F)c(F)cc23)C(C)C1 (stereo unspecified) + Cc1[nH]c2ccc(F)cc2c1-c1nc2c3cccnc3c3ncccc3c2[nH]1
Key: 109%

Exercise: Provide measured viability, T/C value, entry: CC1COCCN1c1cc(-c2ccnn2C)c2ccnc(-c3ccn[nH]3)c2n1 (stereo unspecified) + Cc1cnc(CNC(=O)c2c(=O)c3ccc(N4CCCN(C)CC4)nc3n3c2sc2ccccc23)cn1
Key: 41.9%

Others:
Exercise: Provide measured viability, T/C value, entry: COc1cccc2c1C(=O)c1c(O)c3c(c(O)c1C2=O)CC(O)(C(=O)CO)CC3OC1CC(N)C(O)C(C)O1 (stereo unspecified) + CN(C)c1ccc(Nc2c3ccc(NC(=O)CCN4CCCC4)cc3nc3cc(NC(=O)CCN4CCCC4)ccc23)cc1
Key: 89.4%

Exercise: Provide measured viability, T/C value, entry: Cn1ncnc1[C@H]1c2n[nH]c(=O)c3cc(F)cc(c23)N[C@@H]1c1ccc(F)cc1 + Cc1cnc(CNC(=O)c2c(=O)c3ccc(N4CCCN(C)CC4)nc3n3c2sc2ccccc23)cn1
Key: 93.2%

Exercise: Provide measured viability, T/C value, entry: CC1COCCN1c1cc(C2(S(C)(=N)=O)CC2)nc(-c2ccnc3[nH]ccc23)n1 (stereo unspecified) + CN(C)c1ccc(Nc2c3ccc(NC(=O)CCN4CCCC4)cc3nc3cc(NC(=O)CCN4CCCC4)ccc23)cc1
Key: 85.5%

Exercise: Provide measured viability, T/C value, entry: CC1COCCN1c1cc(C2(S(C)(=N)=O)CC2)nc(-c2ccnc3[nH]ccc23)n1 (stereo unspecified) + Cc1cnc(CNC(=O)c2c(=O)c3ccc(N4CCCN(C)CC4)nc3n3c2sc2ccccc23)cn1
Key: 83.2%

Exercise: Provide measured viability, T/C value, entry: C=CC(=O)N1CCN(c2nc(=O)n(-c3c(C)ccnc3C(C)C)c3nc(-c4c(O)cccc4F)c(F)cc23)C(C)C1 (stereo unspecified) + Cc1cnc(CNC(=O)c2c(=O)c3ccc(N4CCCN(C)CC4)nc3n3c2sc2ccccc23)cn1
Key: 89.8%

----------
# Tested on: 282377-053-R-J1-PDC complex spheroids, viability
# RUN_DESCRIPTION: Anticancer human tumor 282377-053-R-J1-PDC cell line growth inhibition [GQUAD];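 further: spheroids exposed to compounds for 7 days before readout; percent of vehicle DMSO control viability with 100% = untreated-like growth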
# CONDITION_SUMMARY: second compound 0.0316 µM; first compound 0.316 µM; hits give low values
PARAMETER: viability, T/C (%)
Just the number please, in %, no unit attached.

Exercise: Provide measured viability, T/C value, entry: CCc1c2c(nc3ccc(O)cc13)-c1cc3c(c(=O)n1C2)COC(=O)[C@]3(O)CC + Cc1[nH]c2ccc(F)cc2c1-c1nc2c3cccnc3c3ncccc3c2[nH]1
Key: 29.4

Exercise: Provide measured viability, T/C value, entry: Cc1[nH]c2ccccc2c1CCNCc1ccc(/C=C/C(=O)NO)cc1 + Cc1cnc(CNC(=O)c2c(=O)c3ccc(N4CCCN(C)CC4)nc3n3c2sc2ccccc23)cn1
Key: 7.24

Exercise: Provide measured viability, T/C value, entry: COc1cc(C2c3cc4c(cc3C(OC3OC5COC(C)OC5C(O)C3O)C3COC(=O)C23)OCO4)cc(OC)c1O (stereo not given) + Cc1[nH]c2ccc(F)cc2c1-c1nc2c3cccnc3c3ncccc3c2[nH]1
Key: 104

Exercise: Provide measured viability, T/C value, entry: Cc1[nH]c2ccccc2c1CCNCc1ccc(/C=C/C(=O)NO)cc1 + CN(C)c1ccc(Nc2c3ccc(NC(=O)CCN4CCCC4)cc3nc3cc(NC(=O)CCN4CCCC4)ccc23)cc1
Key: 6.18

Exercise: Provide measured viability, T/C value, entry: Nc1ccn(C2OC(CO)C(O)C2(F)F)c(=O)n1 (stereo not given) + CN(C)c1ccc(Nc2c3ccc(NC(=O)CCN4CCCC4)cc3nc3cc(NC(=O)CCN4CCCC4)ccc23)cc1
Key: 49.7

Others:
Exercise: Provide measured viability, T/C value, entry: CC(C)n1c(=O)n(C)c2cnc3cc(F)c(-c4ccc(OCCCN5CCCCC5)nc4)cc3c21 + CN(C)c1ccc(Nc2c3ccc(NC(=O)CCN4CCCC4)cc3nc3cc(NC(=O)CCN4CCCC4)ccc23)cc1
Key: 102

Exercise: Provide measured viability, T/C value, entry: CC(=O)O[C@H]1C(=O)[C@@]2(C)[C@H]([C@H](OC(=O)c3ccccc3)[C@]3(O)C[C@H](OC(=O)[C@H](O)[C@@H](NC(=O)c4ccccc4)c4ccccc4)C(C)=C1C3(C)C)[C@]1(OC(C)=O)CO[C@@H]1C[C@@H]2O + CN(C)c1ccc(Nc2c3ccc(NC(=O)CCN4CCCC4)cc3nc3cc(NC(=O)CCN4CCCC4)ccc23)cc1
Key: 18.9

Exercise: Provide measured viability, T/C value, entry: COc1ncnc(C2CC2)c1-c1ncc2cnn(Cc3ccc(-c4nc(C(F)(F)F)cn4C(C)C)cc3)c2n1 + Cc1[nH]c2ccc(F)cc2c1-c1nc2c3cccnc3c3ncccc3c2[nH]1
Key: 91.9

Exercise: Provide measured viability, T/C value, entry: COc1ccc([C@@H](O)c2cc(-c3ncnc4cc(N5CCOCC5)ccc34)c(F)cc2Cl)nn1 + CN(C)c1ccc(Nc2c3ccc(NC(=O)CCN4CCCC4)cc3nc3cc(NC(=O)CCN4CCCC4)ccc23)cc1
Key: 80.6

Exercise: Provide measured viability, T/C value, entry: CCCS(=O)(=O)Nc1ccc(F)c(C(=O)c2c[nH]c3ncc(-c4ccc(Cl)cc4)cc23)c1F + CN(C)c1ccc(Nc2c3ccc(NC(=O)CCN4CCCC4)cc3nc3cc(NC(=O)CCN4CCCC4)ccc23)cc1
Key: 58
